The values you see were collected from ChEMBL document CHEMBL3407476.

We begin with a simple list: items and their reported IC50.
- Assay summary: Cytotoxicity against human NALM6 cells assessed as growth inhibition after 48 hrs by MTT assay
- Type: functional, cell-based
- Assay context: NALM-6, 48 h
Please give a number only; it is taken to be in µM.

Use these answered entries as a reference point.
In [3]: df
Out[3]:
                                   molecule  value_reported
0              C=C1CN(C)N(c2ccc(Br)cc2)C1=O              62
1                  C=C1CN(C)N(c2ccccc2)C1=O              56
2              C=C1CN(C)N(c2ccc(Cl)cc2)C1=O            51.9
3  C=C1C(=O)N(c2ccccc2)N(C)C1CC (configuration not stated)             576
4  C=C1C(=O)N(c2ccccc2)N(C)C1C (configuration not stated)             412
5  C=C1C(=O)N(c2ccccc2)N(C)C1c1ccccc1 (configuration not stated)            24.4

--- query ---
Prompt: Identify the reported IC50 for the following entry. C=C1C(=O)N(c2ccccc2)N(c2ccccc2)C1CC (configuration not stated)
Completion: 14.9

---

- Assay summary: Cytotoxicity against human NALM6 cells assessed as growth inhibition after 48 hrs by MTT assay
- Assay type: functional, cell-based
- Assay context: NALM-6, 48 h
Measure name: IC50 (µM)
Just the number in µM, nothing appended.

Known results for compounds:
>>> df
                                   compound  measure_name  unit_abbrev  value_reported
0  C=C1C(=O)N(c2ccccc2)N(c2ccccc2)C1c1ccccc1 (centres undefined)          IC50           µM            3.82
1  C=C1C(=O)N(c2ccccc2)N(C)C1CCCCCCCCC (centres undefined)          IC50           µM            57.5
2  C=C1C(=O)NC(C)C1c1ccc(Br)cc1 (centres undefined)          IC50           µM             439
3               C=C1CN(C)N(c2ccc(C)cc2)C1=O          IC50           µM            90.1
4  C=C1C(=O)N(c2ccccc2)N(C)C1CCCC (centres undefined)          IC50           µM             432
5  C=C1C(=O)N(c2ccccc2)N(C)C1c1ccc(OC)cc1 (centres undefined)          IC50           µM            49.3
6  C=CC1C(=C)C(=O)N(c2ccccc2)N1c1ccccc1 (centres undefined)          IC50           µM            0.74
7  C=C1C(=O)N(c2ccccc2)N(c2ccccc2)C1C (centres undefined)          IC50           µM            6.98

Now let's try a different one.
Prompt: Please look at this compound and report its IC50: C=C1C(=O)N(c2ccccc2)N(c2ccccc2)C1CCCC (centres undefined)
Completion: 29.1

---

Below is a list of entries, each paired with its recorded selectivity ratio value.
- Assay summary: Therapeutic index, ratio of IC50 for HUVEC to IC50 for human NALM6 cells
- Type: cell-based, NALM-6
- Assay context: HUVEC and NALM6 cells, read-out: Ratio IC50
Enter a number only.

>>> df
                                   compound  value_reported
0  C=C1C(=O)N(c2ccccc2)N(c2ccccc2)C1C (configuration not stated)               4

Now turn to the next compound.
Prompt: Specify reported selectivity ratio for the compound shown: C=CC1C(=C)C(=O)N(c2ccccc2)N1c1ccccc1 (configuration not stated)
Completion: 4

---

- Assay summary: Therapeutic index, ratio of IC50 for HUVEC to IC50 for human HL60 cells
- Assay type: cell-based, HL-60
- Assay context: HUVEC and HL60 cells, read-out: Ratio IC50
Measure name: selectivity ratio
Respond with the number and no other words.

Prompt: Supply recorded selectivity ratio for C=C1C(=O)N(c2ccccc2)N(c2ccccc2)C1C (stereo unspecified) here.
Completion: 5
